System: c-Src
Experiment: phosphorylation enrichment, bacterial display (enrichment ratio); higher = better substrate or ligand; peptides without Tyr show the background;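 note: 11-residue human phosphosite peptides and single-mutation variants displayed on the E. coli surface, counted by deep sequencing, each peptide's frequency after selection divided by its frequency in the unselected input library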;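 note: frequency after pTyr selection over input frequency; kinase dosed for 20-30% of maximal phosphorylation in three min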
RECORDED METRIC: phosphorylation enrichment
Numbers only.

PRIMARY SEQUENCE: TTKGSYSLYVR [HCK_Y180_S183Y]
ASSAY RESULT: 0.373
//
PRIMARY SEQUENCE: KVFRVYQGQQP [MUTYH_Y494]
ASSAY RESULT: 0.375
//
PRIMARY SEQUENCE: VPLLEYFWDIF [CDAN1_Y712_R714W_YF]
ASSAY RESULT: 0.411
//
PRIMARY SEQUENCE: EPTPGYEVSQR [TSC2_Y1788_G1791S]
ASSAY RESULT: 0.383
//
PRIMARY SEQUENCE: MAFDRYAAICS [OR8H2_Y123_H120Y_YF]
ASSAY RESULT: 0.576
//
PRIMARY SEQUENCE: AFPVSYSSSSA [RET_Y687_G691S]
ASSAY RESULT: 0.415
//
PRIMARY SEQUENCE: KVVQEYERVII [NPHS2_Y131]
ASSAY RESULT: 0.457
//
PRIMARY SEQUENCE: LYIDSYEKDVA [PGM1_Y521]
ASSAY RESULT: 0.69

Would you mind listing phosphorylation enrichment for each of the following sequences?
1. ASGKYYAMKIL [AKT3_Y174]
2. QTLTDYDIRFY [CSNK2A1_Y131]
3. KVGNEYVNKGQ [MYH7_Y410_T412N]
4. SNKLTYGTMVF [ACOX1_Y275]
5. IETGKYEILTE
6. CGQDPYIRELG [UROS_Y19]

1: 0.396; 2: 0.603; 3: 0.428; 4: 4.65; 5: 0.495; 6: 0.433

====

Target: EPHB1 (UniProt P54762)
Sequence (P54762 whole entry, looked up): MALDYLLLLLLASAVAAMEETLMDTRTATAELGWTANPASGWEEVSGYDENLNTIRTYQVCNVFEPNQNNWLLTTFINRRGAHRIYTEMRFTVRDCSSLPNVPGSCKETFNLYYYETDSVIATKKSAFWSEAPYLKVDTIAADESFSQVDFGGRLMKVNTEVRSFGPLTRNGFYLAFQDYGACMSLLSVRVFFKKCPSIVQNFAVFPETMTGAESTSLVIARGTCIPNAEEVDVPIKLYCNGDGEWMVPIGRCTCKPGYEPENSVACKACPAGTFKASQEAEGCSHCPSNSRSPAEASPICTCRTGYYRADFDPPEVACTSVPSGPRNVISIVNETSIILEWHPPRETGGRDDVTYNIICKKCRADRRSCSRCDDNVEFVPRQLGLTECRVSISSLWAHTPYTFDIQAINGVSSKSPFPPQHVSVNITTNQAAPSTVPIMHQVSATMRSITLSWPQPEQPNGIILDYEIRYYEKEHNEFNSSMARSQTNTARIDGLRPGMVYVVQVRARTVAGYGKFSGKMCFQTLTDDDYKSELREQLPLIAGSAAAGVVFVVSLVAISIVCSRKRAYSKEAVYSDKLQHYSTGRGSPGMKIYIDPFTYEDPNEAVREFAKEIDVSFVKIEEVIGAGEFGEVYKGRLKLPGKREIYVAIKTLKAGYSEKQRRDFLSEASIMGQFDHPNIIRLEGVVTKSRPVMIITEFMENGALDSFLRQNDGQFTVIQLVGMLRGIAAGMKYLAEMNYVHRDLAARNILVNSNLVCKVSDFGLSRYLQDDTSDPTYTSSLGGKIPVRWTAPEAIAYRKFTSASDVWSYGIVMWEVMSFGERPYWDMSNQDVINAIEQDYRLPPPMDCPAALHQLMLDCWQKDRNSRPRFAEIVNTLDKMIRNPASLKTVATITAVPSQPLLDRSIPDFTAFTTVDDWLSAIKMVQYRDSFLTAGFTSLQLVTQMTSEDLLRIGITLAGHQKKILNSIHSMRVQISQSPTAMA
Assay: phosphorylation enrichment, bacterial display (enrichment ratio); higher = better substrate or ligand; peptides without Tyr show the background
RECORDED METRIC: phosphorylation enrichment
Give bare numbers.

Below: 5 sequences and their reported phosphorylation enrichment.
PRIMARY SEQUENCE: RRVLVYRGRGA [QDPR_Y16_G17R]
phosphorylation enrichment: 0.818
--
PRIMARY SEQUENCE: VNKIFYPDFIV [LIG3_Y768_YF]
phosphorylation enrichment: 0.465
--
PRIMARY SEQUENCE: QTEAEYRFIFM [PTPN11_Y511_Q510E_YF]
phosphorylation enrichment: 0.59
--
PRIMARY SEQUENCE: FFCRWYRNQKS [EREG_Y144_R147Q_YF]
phosphorylation enrichment: 0.493
--
PRIMARY SEQUENCE: KDFETYQPFQN [CTNND2_Y1157_YF]
phosphorylation enrichment: 0.69

Would you mind listing phosphorylation enrichment for each of the following sequences?
1. TFMKQYPKVFL [CNBD1_Y70]
2. SGPRCYTIAAL [TTR_Y125_R124C]
3. VDGSVYELHPS [GCK_Y413_K414E]
4. VDTFWYKFLKP [EPM2A_Y86_R91P]
5. CTTIDYNYMCN [TP53_Y234_H233D]

0.54
0.41
2.35
0.644
0.715

Would you mind listing phosphorylation enrichment for each of the following sequences?
1. QSSALYEDCYL [ASS1_Y83_R86C]
2. VEDHDYEGGIG [TKT_Y564_Y563D]
3. GRGMPYGGRGD [TGM1_Y312_R307G]
4. LAGRYYALRSM [CKB_Y174_K177R]

1. 12.4
2. 0.737
3. 0.338
4. 0.701

====

Test system: c-Src
Assay: phosphorylation enrichment, bacterial display (enrichment ratio); higher = better substrate or ligand; peptides without Tyr show the background
// Condition not met strictly below 0.5 in phosphorylation enrichment; Condition met otherwise

Previously resolved entries follow.
PRIMARY SEQUENCE: RLLVVYSWTQR [HBB_Y36_P37S]
CLASSIFICATION: Condition met

PRIMARY SEQUENCE: LLREWYLPDPF [SIX3_Y225_Q227P_YF]
CLASSIFICATION: Condition met

PRIMARY SEQUENCE: DPFHVYIKNHV [KCNE3_Y95_R99H_YF]
CLASSIFICATION: Condition not met

PRIMARY SEQUENCE: SVTCTCSPALN [TP53_Y126_Y126C]
CLASSIFICATION: Condition not met

PRIMARY SEQUENCE: INSLKYAYNIS [EIF2B5_Y583]
CLASSIFICATION: Condition not met

PRIMARY SEQUENCE: PVKSEYPSIKL [NPC2_Y119]
CLASSIFICATION: Condition not met

PRIMARY SEQUENCE: YLELNYKEDEY [MME_Y502]
CLASSIFICATION: Condition met

PRIMARY SEQUENCE: GEYYRYLAEVA [YWHAG_Y133_D129E]
CLASSIFICATION: Condition met

PRIMARY SEQUENCE: HTLMKYTDGDQ [PUS7L_Y94_I92M]
CLASSIFICATION: Condition met

PRIMARY SEQUENCE: CGTPDNIAPEI [PRKCG_Y521_Y521N]
CLASSIFICATION: Condition not met

Quick check: does RLLRGHDQYAY [HLA-B_Y137] have phosphorylation enrichment greater than or equal to 0.5? Condition not met

Quick check: does SDGKRYRVPSD [HHIPL2_Y395_H391D] have phosphorylation enrichment greater than or equal to 0.5? Condition not met

Quick check: does ACCLLYCGDVV [TUBA4A_Y319_R320C] have phosphorylation enrichment greater than or equal to 0.5? Condition met

Quick check: does AHADEYGAEAL [HBA1_Y25_G23D] have phosphorylation enrichment greater than or equal to 0.5? Condition not met

Quick check: does REIIAYQPYGK [PRKCG_Y529_P524R] have phosphorylation enrichment greater than or equal to 0.5? Condition not met

Quick check: does VVHGSYDEIEG [SEC24A_Y263_S261G] have phosphorylation enrichment greater than or equal to 0.5? Condition met

Quick check: does SQDSAYHSGIQ [FLG_Y3940] have phosphorylation enrichment greater than or equal to 0.5? Condition not met

Quick check: does MCDKEYYSVHN [MET_Y1234_Y1230C] have phosphorylation enrichment greater than or equal to 0.5? Condition met

Quick check: does MDDDQYALLTT [EFCAB6_Y675] have phosphorylation enrichment greater than or equal to 0.5? Condition met

Quick check: does FHKALYTVRTF [PDE6C_Y266_S270T_YF] have phosphorylation enrichment greater than or equal to 0.5? Condition met

Quick check: does PEVSGYCHYAD [TG_Y234_C237Y] have phosphorylation enrichment greater than or equal to 0.5? Condition not met

Quick check: does ENRKYYKDLKE [PURA_Y156_M157K] have phosphorylation enrichment greater than or equal to 0.5? Condition not met

Quick check: does LTYHMYADPNF [SOS1_Y618] have phosphorylation enrichment greater than or equal to 0.5? Condition met

Quick check: does QNTVDYYDLYG [PTPN11_Y62_G60V] have phosphorylation enrichment greater than or equal to 0.5? Condition met

Quick check: does KMKGDYYRYLA [YWHAG_Y130] have phosphorylation enrichment greater than or equal to 0.5? Condition met

====

Assignment: determine reported phosphorylation enrichment for the given sequences.
Molecular target: Fes (UniProt P07332)
Sequence (P07332 whole entry, looked up): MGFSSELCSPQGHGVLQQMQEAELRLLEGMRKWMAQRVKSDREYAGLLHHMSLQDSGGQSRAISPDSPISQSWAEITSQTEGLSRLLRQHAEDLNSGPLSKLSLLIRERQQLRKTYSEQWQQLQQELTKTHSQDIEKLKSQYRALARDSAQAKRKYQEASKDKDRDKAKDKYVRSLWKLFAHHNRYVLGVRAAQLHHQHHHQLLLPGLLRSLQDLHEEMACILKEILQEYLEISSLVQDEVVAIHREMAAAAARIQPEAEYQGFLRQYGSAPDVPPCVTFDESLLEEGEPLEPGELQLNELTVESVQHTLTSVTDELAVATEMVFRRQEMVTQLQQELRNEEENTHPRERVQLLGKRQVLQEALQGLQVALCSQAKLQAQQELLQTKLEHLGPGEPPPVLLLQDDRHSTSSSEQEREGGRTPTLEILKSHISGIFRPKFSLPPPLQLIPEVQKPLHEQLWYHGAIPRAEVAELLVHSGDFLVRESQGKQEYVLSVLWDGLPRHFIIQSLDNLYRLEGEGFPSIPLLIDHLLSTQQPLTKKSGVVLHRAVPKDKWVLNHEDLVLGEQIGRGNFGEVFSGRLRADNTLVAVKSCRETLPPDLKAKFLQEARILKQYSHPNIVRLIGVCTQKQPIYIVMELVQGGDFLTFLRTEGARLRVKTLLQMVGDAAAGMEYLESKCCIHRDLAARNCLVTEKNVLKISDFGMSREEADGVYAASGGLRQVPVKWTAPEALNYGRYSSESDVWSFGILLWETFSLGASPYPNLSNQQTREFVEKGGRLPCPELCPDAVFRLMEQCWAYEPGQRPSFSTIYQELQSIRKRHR
Assay: phosphorylation enrichment, bacterial display (enrichment ratio); higher = better substrate or ligand; peptides without Tyr show the background
One number for each entry.

Below: 8 sequences and their reported phosphorylation enrichment.
PRIMARY SEQUENCE: QDLLLYQTHSE [PKHD1_Y255_F253L]
phosphorylation enrichment: 1.54
//
PRIMARY SEQUENCE: QTEAQYRFIYM [PTPN11_Y511]
phosphorylation enrichment: 1.29
//
PRIMARY SEQUENCE: IETGKYEILTE
phosphorylation enrichment: 1.34
//
PRIMARY SEQUENCE: PVQAPYQKVVA [HBB_Y131_A130P]
phosphorylation enrichment: 0.94
//
PRIMARY SEQUENCE: IIEDPYYGNDF [ACP1_Y132_S137F]
phosphorylation enrichment: 1.48
//
PRIMARY SEQUENCE: IMWDSYTTNKV [GNB3_Y85_V81M]
phosphorylation enrichment: 0.885
//
PRIMARY SEQUENCE: RLPNGYGLAFR [DLK1_Y262_S260N_YF]
phosphorylation enrichment: 1.06
//
PRIMARY SEQUENCE: PSQRPYVYYYS [PTEN_Y174_R173P]
phosphorylation enrichment: 1.09

Would you mind listing phosphorylation enrichment for each of the following sequences?
1. APAHKYHGGGG [HBD_Y146_L142P]
2. RAMRRYLERGE [ERBB3_Y680]
3. KVFRVYQGQQP [MUTYH_Y494]
4. KSSDVYVSFDF [SORL1_Y136_YF]
5. MPLDQYSPSFP [FGFR1_Y776]

0.502
0.576
0.608
1.22
0.941
